target: ERβ (Homo sapiens); assay: ERβ luciferase reporter (pERE2TATA-LUC) transactivation assay in transfected HEK293 cells; type: cell-based; design: expressed in transfected cells; host or cells: HEK293; conditions: Table 1, sample concentration 10 μM, 24 hours, mean of at least three independent transfections, SEM typically <15%
Sequence (Q92731 whole entry): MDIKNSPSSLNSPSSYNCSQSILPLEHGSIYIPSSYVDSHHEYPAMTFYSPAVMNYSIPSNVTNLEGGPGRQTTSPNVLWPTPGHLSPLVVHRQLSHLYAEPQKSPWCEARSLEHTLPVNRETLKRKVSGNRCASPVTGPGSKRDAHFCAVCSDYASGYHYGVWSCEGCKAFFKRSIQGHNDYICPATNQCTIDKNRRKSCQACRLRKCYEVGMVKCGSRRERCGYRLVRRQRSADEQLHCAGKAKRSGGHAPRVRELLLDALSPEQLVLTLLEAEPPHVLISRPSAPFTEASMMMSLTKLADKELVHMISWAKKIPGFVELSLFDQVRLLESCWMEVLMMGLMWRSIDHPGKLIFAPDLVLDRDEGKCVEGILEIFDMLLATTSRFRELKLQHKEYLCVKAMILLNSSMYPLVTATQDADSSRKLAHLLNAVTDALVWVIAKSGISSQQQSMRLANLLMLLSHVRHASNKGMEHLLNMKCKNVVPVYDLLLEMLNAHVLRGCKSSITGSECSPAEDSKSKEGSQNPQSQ
Assay readout: ERβ receptor activation relative to 10 nM E2 corresponding 100 (%)

Answered examples (2):
[[record]]
compound = "COc1ccccc1CC(=O)CC(O)CCc1cccc(F)c1 (single isomer, unassigned) [Compound 22a]"
tested_on = "ERβ (Homo sapiens)"
units = "%"
measured_result = 3.4

[[record]]
compound = "O=C(CCc1ccccc1)CC(O)Cc1ccc2ccccc2c1 (single isomer, unassigned) [Compound 28b]"
tested_on = "ERβ (Homo sapiens)"
units = "%"
measured_result = 20.1


[1] O=C(CCc1ccccc1)CC(O)Cc1ccc2ccccc2c1 (single isomer, unassigned) [Compound 28a]
[2] O=C(CCCc1ccc(O)cc1)CC(O)Cc1ccc(O)cc1 (single isomer, unassigned) [Compound 42b]
[3] O=C(CCCc1ccc(O)cc1)CC(O)Cc1ccc(O)cc1 (single isomer, unassigned) [Compound 42a]
[4] COc1ccc(CC(O)CC(=O)CCc2ccccc2)cc1 (single isomer, unassigned) [Compound 24a]
[5] COc1ccc(CC(O)CC(=O)CCc2ccccc2)cc1 (single isomer, unassigned) [Compound 24b]
With regard to ERβ receptor activation relative to 10 nM E2 corresponding 100, arrange the entries in ascending order, please. Answer by writing out the labels in the requested order.
2, 4, 5, 3, 1
(2: −1.6%, 4: −0.8%, 5: 1.2%, 3: 1.8%, 1: 6.4%)

====

biological target: ERα (Homo sapiens); assay: ERα luciferase reporter (pERE2TATA-LUC) transactivation assay in transfected HEK293 cells; format: cell-based; parameters: expressed in transfected cells; host or cells: HEK293; details: Table 1, sample concentration 10 μM, 24 hours, mean of at least three independent transfections, SEM typically <15%
Sequence (P03372 whole entry): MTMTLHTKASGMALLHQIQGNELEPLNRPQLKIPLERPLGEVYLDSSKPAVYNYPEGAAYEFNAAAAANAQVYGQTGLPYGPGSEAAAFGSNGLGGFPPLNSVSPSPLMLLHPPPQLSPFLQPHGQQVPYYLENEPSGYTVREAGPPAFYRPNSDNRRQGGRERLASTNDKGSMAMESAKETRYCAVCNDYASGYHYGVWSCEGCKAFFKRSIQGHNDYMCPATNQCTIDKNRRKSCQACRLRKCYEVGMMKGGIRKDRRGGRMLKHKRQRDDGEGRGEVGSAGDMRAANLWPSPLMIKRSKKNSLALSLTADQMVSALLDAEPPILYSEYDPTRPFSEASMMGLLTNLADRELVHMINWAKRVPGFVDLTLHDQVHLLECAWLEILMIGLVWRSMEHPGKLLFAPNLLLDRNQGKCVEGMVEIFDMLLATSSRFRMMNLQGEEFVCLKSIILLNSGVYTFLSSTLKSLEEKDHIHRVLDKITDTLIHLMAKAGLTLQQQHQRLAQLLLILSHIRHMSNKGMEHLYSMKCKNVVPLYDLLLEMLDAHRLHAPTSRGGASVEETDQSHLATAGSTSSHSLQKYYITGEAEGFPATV
Assay readout: ERα receptor activation relative to 10 nM E2 corresponding 100 (%)

Solved cases below.
[[record]]
molecule = "O=C(CCCc1ccc(O)c(O)c1)CC(O)Cc1ccccc1 (centres unmarked) [Compound 41ab]"
units = "%"
measured_result = "−0.5"

[[record]]
molecule = "COC(CC(=O)CCc1ccccc1)Cc1ccc2ccccc2c1 (centres unmarked) [Compound 50ab]"
units = "%"
measured_result = 30.4

[[record]]
molecule = "O=C(CCc1ccccc1O)CC(O)Cc1ccccc1 (centres unmarked) [Compound 30ab]"
units = "%"
measured_result = 45.2

[[record]]
molecule = "O=C(CCCc1ccc(O)cc1)CC(O)c1cccc(O)c1 (single isomer, unassigned) [Compound 35b]"
units = "%"
measured_result = 49.3

[[record]]
molecule = "O=C(CCc1ccccc1)CC(O)Cc1ccc2ccccc2c1 (single isomer, unassigned) [Compound 28a]"
units = "%"
measured_result = 12.4


[A] O=C(CCCc1ccc(O)cc1)CC(O)Cc1ccc(O)cc1 (single isomer, unassigned) [Compound 42a]
[B] CC(O)(CC(=O)CCc1ccc(O)cc1)c1ccccc1 (centres unmarked) [Compound 23ab]
[C] O=C(CCCc1ccc(O)cc1)CC(O)Cc1ccc(O)cc1 (single isomer, unassigned) [Compound 42b]
Rank the 3 molecules: largest ERα receptor activation relative to 10 nM E2 corresponding 100 first, smallest last. // respond by listing labels in the order requested
B, A, C
(B: 80.3%, A: 15.4%, C: 2.8%)

[A] COc1ccc(CC(O)CC(=O)CCc2ccccc2)cc1 (single isomer, unassigned) [Compound 24a]
[B] CC(O)(CC(=O)CCCc1ccccc1)c1ccccc1 (centres unmarked) [Compound 36ab, 6-Hydroxy-1,6-diphenyl-heptan-4-one]
[C] O=C(CCCc1ccc(O)cc1)CC(O)c1ccccc1 (single isomer, unassigned) [Compound 34a]
[D] O=C(CCc1ccccc1)CC(O)Cc1ccc2ccccc2c1 (single isomer, unassigned) [Compound 28b]
[E] COC(CC(=O)CCc1ccccc1)Cc1ccc(F)cc1 (centres unmarked) [Compound 48ab]
Hey, quick one: sort these by ERα receptor activation relative to 10 nM E2 corresponding 100, largest value first please. Answer format: list of labels, ordered as asked.
C, B, E, D, A
(C: 139.2%, B: 83.3%, E: 33.1%, D: 20.1%, A: 1.6%)

[a] COC(CCc1ccccc1)CC(=O)CCCc1ccccc1 (centres unmarked) [Compound 52ab, 3-Methoxy-1,8-diphenyl-octan-5-one]
[b] COc1ccc(CC(CC(=O)CCc2ccccc2)OC)cc1 (centres unmarked) [Compound 47ab]
[c] COc1ccccc1CC(=O)CC(O)CCc1cccc(F)c1 (single isomer, unassigned) [Compound 22a]
Sort the 3 molecules by ERα receptor activation relative to 10 nM E2 corresponding 100; largest first, smallest last. Arrange the labels as the request states and list them.
b, c, a
(b: 28.5%, c: 8.4%, a: 3.1%)
